Ref: ChEMBL document CHEMBL5154798

Kindly state bioavailability for each of the entries shown.
# assay.notes: Oral bioavailability in male Sprague-Dawley rat at 20 mg/kg administered as single dose measured by LC/MS/MS analysis
# Type: ADME, organism-based
# test.conditions: in vivo
Form entry: value (%) — number only.

Notebook: Nc1nc(Nc2ccc(CNC(=O)CCCCCCCNc3cccc4c3CN(C3CCC(=O)NC3=O)C4=O)cc2)nn1-c1ccc(-c2ccccc2)nn1 (configuration not stated) , bioavailability read as 4.93

Notebook: Nc1nc(Nc2ccc(CNC(=O)CCCCCNc3cccc4c3CN(C3CCC(=O)NC3=O)C4=O)cc2)nn1-c1ccc(-c2ccccc2)nn1 (configuration not stated) , bioavailability read as 7.8
